- targetOfAssay: T1, Extracellular domain of cyno PD1 (cPD1-ECD) (Macaca fascicularis (cynomolgus))
- T1 construct: Expressed with a hexahistidine tag or as Fc fusion; also called cynoPD1-ECD; cynoPD-1-ECD
- T1 chain: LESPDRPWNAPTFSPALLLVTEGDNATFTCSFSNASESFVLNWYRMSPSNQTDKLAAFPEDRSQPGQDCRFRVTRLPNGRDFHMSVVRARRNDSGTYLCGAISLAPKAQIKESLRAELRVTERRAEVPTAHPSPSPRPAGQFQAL
- method: SPR ProteOn, captured mAb, cynoPD1-ECD analyte;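 also: ProteOn XPR36 SPR with antibodies held by anti-IgG Fc on a GLC chip, on-rate, off-rate and KD derived from a Langmuir one-to-one fit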
Assign pKd to each entry below.
Give bare numbers, as −log10 of the molar value.

binder | pKd
PD1B185 (antibody, human IgG2, kappa, V domains shown, IgG2sigma/kappa; VH 43, VL 55; also called PD1H3/PD1L132) VH: QVQLVQSGAEVKKPGSSVKVSCKASGGTFSSYAISWVRQAPGQGLEWMGGIIPIFGTANYAQKFQGRVTITADESTSTAYMELSSLRSEDTAVYYCARPGLAAAYDTGSLDYWGQGTLVTVSS VL: EIVLTQSPATLSLSPGERATLSCRASQSVRNYLAWYQQKPGQAPRLLIYDASDRATGIPARFSGSGSGTDFTLTISSLEPEDFAVYYCQQRWNWPLTFGQGTKVEIKR | 7.52
PD1B192 (antibody, human IgG2, kappa, V domains shown, IgG2sigma/kappa; VH 43, VL 57; also called PD1H3/PD1L133) VH: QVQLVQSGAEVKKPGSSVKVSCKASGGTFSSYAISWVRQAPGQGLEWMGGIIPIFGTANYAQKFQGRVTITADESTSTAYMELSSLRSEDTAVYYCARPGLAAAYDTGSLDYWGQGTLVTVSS VL: EIVLTQSPATLSLSPGERATLSCRASQSVDSYLAWYQQKPGQAPRLLIHDASNRATGIPARFSGSGSGTDFTLTISSLEPEDFAVYYCQQRNYWPLTFGQGTKVEIKR | 7.79
PD1B184 (antibody, human IgG2, kappa, V domains shown, IgG2sigma/kappa; VH 43, VL 50; also called PD1H3/PD1L128) VH: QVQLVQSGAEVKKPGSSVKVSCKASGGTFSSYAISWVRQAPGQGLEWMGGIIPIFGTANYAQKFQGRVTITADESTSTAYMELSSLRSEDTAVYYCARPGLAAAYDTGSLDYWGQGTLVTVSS VL: EIVLTQSPATLSLSPGERATLSCRASQSVRNYLAWYQQKPGQAPRLLIHDASNRATGIPARFSGSGSGTDFTLTISSLEPEDFAVYYCQQRNYWPLTFGQGTKVEIKR | 7.94
PD1B162 (antibody, human IgG2, kappa, V domains shown, IgG2sigma/kappa; VH 42, VL 52; also called PD1H131/PD1L67) VH: QVQLVQSGAEVKKPGSSVKVSCKASGGTFSSYAISWVRQAPGQGLEWMGGIIPIFDTANYAQKFQGRVTITADESTSTAYMELSSLRSEDTAVYYCARPGLAAAYDTGNLDYWGQGTLVTVSS VL: EIVLTQSPATLSLSPGERATLSCRASQSVDSYLAWYQQKPGQAPRLLIYDASNRATGIPARFSGSGSGTDFTLTISSLEPEDFAVYYCQQREYWPLTFGQGTKVEIKR | 8.60

We next turn to a different binder, shown below.
Lab note: measured pKd of PD1B149 (antibody, human IgG2, kappa, V domains shown, IgG2sigma/kappa; VH 41, VL 50; also called PD1H24/PD1L128) VH: QVQLVQSGAEVKKPGSSVKVSCKASGGTFSSYAISWVRQAPGQGLEWMGGIIPIFGTANYAQKFQGRVTITADESTSTAYMELSSLRSEDTAVYYCARPGLAAAYDTGNLDYWGQGTLVTVSS VL: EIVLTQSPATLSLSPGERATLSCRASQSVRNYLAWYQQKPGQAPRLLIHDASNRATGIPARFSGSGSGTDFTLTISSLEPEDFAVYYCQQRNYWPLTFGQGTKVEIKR was 7.95
